# EXPERIMENTAL_SYSTEM: UniProt P04150
# Sequence (P04150 whole entry): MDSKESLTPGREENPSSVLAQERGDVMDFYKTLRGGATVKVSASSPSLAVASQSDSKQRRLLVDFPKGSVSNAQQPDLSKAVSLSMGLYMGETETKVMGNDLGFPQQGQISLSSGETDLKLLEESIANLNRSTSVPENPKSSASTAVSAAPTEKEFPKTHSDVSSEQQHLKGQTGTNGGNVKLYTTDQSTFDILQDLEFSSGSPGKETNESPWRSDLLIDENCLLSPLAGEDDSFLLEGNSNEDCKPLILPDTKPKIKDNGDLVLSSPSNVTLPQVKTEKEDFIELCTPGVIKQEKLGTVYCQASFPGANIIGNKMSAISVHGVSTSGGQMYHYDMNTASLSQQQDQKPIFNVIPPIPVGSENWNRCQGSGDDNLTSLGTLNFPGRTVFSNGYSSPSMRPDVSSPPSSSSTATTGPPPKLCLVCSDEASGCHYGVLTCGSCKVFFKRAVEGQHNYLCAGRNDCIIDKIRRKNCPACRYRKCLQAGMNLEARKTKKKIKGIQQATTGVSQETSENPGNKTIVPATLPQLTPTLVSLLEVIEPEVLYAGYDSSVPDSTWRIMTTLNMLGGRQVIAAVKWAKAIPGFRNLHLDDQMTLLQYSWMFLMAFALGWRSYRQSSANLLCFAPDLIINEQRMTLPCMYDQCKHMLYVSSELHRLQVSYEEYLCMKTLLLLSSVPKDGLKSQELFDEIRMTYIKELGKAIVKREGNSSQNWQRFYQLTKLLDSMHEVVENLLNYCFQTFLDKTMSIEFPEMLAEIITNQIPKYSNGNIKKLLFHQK
# TEST_NAME: Transrepression of human GRalpha expressed in HEK293 cells co-expressing pGL4.32 assessed as inhibition of TNFalpha-stimulated NF-kB activity at 30 uM preincubated for 4 hrs followed by TNFalpha addition measured after 3 hrs by luciferase reporter gene assay relative to control
# Format: cell-based
Active and inactive are the calls of the source. The rule behind the calls is not given here.

| GIVEN_SMILES | EXPERIMENTAL_SYSTEM | inhibition |
| --- | --- | --- |
| CNc1ccc(S(=O)(=O)N(Cc2ccccc2)c2ccc(Oc3ccccc3)cc2)cc1 | UniProt P04150 | inactive |
| Nc1ccc(S(=O)(=O)N(Cc2ccccc2)c2ccc(Oc3ccccc3)cc2)cc1 | UniProt P04150 | 64% |
| CCN(CC)c1ccc(S(=O)(=O)N(Cc2ccccc2)c2ccc(Oc3ccccc3)cc2)cc1 | UniProt P04150 | inactive |
| CCNc1ccc(S(=O)(=O)N(Cc2ccccc2)c2ccc(Oc3ccccc3)cc2)cc1 | UniProt P04150 | inactive |
| CC(=O)Nc1ccc(S(=O)(=O)N(Cc2ccccc2)c2ccc(Oc3ccccc3)cc2)cc1 | UniProt P04150 | 60% |
| Nc1cccc(S(=O)(=O)N(Cc2ccccc2)c2ccc(Oc3ccccc3)cc2)c1 | UniProt P04150 | 39% |
| Nc1ccccc1S(=O)(=O)N(Cc1ccccc1)c1ccc(Oc2ccccc2)cc1 | UniProt P04150 | 46% |
| COC(=O)Nc1ccc(S(=O)(=O)N(Cc2ccccc2)c2ccc(Oc3ccccc3)cc2)cc1 | UniProt P04150 | 32% |
| N#Cc1ccc(S(=O)(=O)N(Cc2ccccc2)c2ccc(Oc3ccccc3)cc2)cc1 | UniProt P04150 | inactive |
| CN(C)c1ccc(S(=O)(=O)N(Cc2ccccc2)c2ccc(Oc3ccccc3)cc2)cc1 | UniProt P04150 | inactive |
